Where do these numbers come from? They come from patent US7220756B2.

system name: human cloned 5-HT6 receptors (Homo sapiens, UniProt P50406)
Construct: expressed in transfected cells; host or cells: HeLa cells
Sequence (P50406 whole entry): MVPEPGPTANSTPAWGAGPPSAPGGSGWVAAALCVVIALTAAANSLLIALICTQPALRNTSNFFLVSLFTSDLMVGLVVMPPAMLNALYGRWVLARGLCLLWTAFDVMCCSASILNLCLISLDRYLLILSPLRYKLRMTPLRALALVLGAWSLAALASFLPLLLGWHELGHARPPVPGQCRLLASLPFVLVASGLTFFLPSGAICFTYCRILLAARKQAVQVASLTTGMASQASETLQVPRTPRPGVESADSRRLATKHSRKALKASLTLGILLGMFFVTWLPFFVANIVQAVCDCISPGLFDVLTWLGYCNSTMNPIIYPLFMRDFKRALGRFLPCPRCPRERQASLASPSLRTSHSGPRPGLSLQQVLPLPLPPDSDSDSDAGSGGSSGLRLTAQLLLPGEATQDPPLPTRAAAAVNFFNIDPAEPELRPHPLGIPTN
protocol description: 5-HT6 binding affinity, [3H]-LSD displacement
measurement context: membranes of Hela cells expressing human cloned 5-HT6 receptors; [3H]-LSD 3.0 nM; 120 min, room temperature; read-out: 5-HT6 Binding Ki
outcome measure: Ki

> print(dat)
                                   compound  reported
1  CN(C)CCc1cn(S(=O)(=O)c2cccc(F)c2)c2sccc12 [Example 47]    2.1 nM
2  CN(C)CCc1cn(S(=O)(=O)c2cccs2)c2sccc12 [Example 56]    2.4 nM
3  CN(C)CCc1cn(S(=O)(=O)c2ccccc2C(F)(F)F)c2sccc12 [Example 62]    4.7 nM
4  NCCc1cn(S(=O)(=O)c2cccs2)c2sccc12 [Example 26]     20 nM
